System: HSkMC (human skeletal muscle cells)
Experiment: cytotoxicity call (relative viability < 0.9)
Conditions: 10 µM
The whole screen tested about 39,000 compounds, of which about 1,500 (3.8%) were called active. Many of the other results were omitted from the sample, so actives are more common in it than they were.
Your reply should match one of these outcome classes. yes (active), no (inactive)

Query: Any idea what this test logged for COc1ccc(NC(=O)Nc2ccc3c(c2)C(=O)N([C@H](C)CO)C[C@@H](C)[C@@H](CN(C)Cc2ccc(Cl)c(Cl)c2)O3)cc1 ?
Result: no

Query: Short answer needed: outcome of this test for C[C@H](O)C#Cc1ccc2c(c1)O[C@@H](CN(C)C(=O)Nc1ccccc1)[C@@H](C)CN([C@H](C)CO)S2(=O)=O ?
Result: no

Query: What is the recorded call for this compound in the test? C[C@H]1CN([C@@H](C)CO)C(=O)c2cc(NC(=O)Nc3cccc4ccccc34)ccc2O[C@@H]1CN(C)S(=O)(=O)c1cccs1
Result: no

Query: Answer briefly: the call reported for CC(C)(C)c1cccc(N)c1 in this assay.
Result: no

Query: What was the test verdict on C=C1C(=O)OC2CC3(C)CCCC(C)C3=CC12 (stereo not drawn) ?
Result: yes

Query: Dear colleague, could you share the recorded outcome for C[C@@H]1CCCCO[C@H](CN(C)Cc2ccc3c(c2)OCO3)[C@@H](C)CN([C@@H](C)CO)C(=O)c2cc(NC(=O)NC3CCCCC3)ccc2O1 when you have a moment?
Result: no

Query: Assay result, entry C[C@@H]1CN([C@H](C)CO)C(=O)c2cc(NS(=O)(=O)c3ccc(F)cc3)ccc2O[C@@H]1CN(C)S(=O)(=O)c1cn(C)cn1 — outcome?
Result: no

Query: How was COc1ccc(NC(=O)Nc2ccc3c(c2)C(=O)N([C@@H](C)CO)C[C@H](C)[C@H](CN(C)Cc2ccc(Cl)c(Cl)c2)O3)cc1 classified in this test?
Result: yes

Query: Per the records of this test, what outcome belongs to C[C@@H]1CCCCO[C@H](CN(C)Cc2ccc(C(F)(F)F)cc2)[C@@H](C)CN([C@@H](C)CO)C(=O)c2cc(NC(=O)C3CCCCC3)ccc2O1 ?
Result: no

Query: For COc1ccc(S(=O)(=O)Nc2ccc3c(c2)C(=O)N([C@H](C)CO)C[C@@H](C)[C@H](CN(C)S(=O)(=O)c2ccc(F)cc2)O3)cc1 , what call appears in the results of this test?
Result: no

Query: Recorded test outcome, item CC(C)CC#Cc1cnc2c(c1)C(=O)N([C@H](C)CO)C[C@@H](C)[C@H](CN(C)C(=O)CCN1CCCCC1)O2
Result: no

Query: Recorded call for C[C@H](CO)N1C[C@H](C)[C@H](CN(C)Cc2ccc(Cl)c(Cl)c2)Oc2ccc(NC(=O)Nc3ccc(F)cc3)cc2C1=O ?
Result: yes

Query: Per the assay record, what outcome was assigned to C[C@H](CO)N1C[C@H](C)[C@@H](CN(C)S(=O)(=O)c2cccs2)Oc2c(NS(=O)(=O)c3cn(C)cn3)cccc2C1=O ?
Result: no

Query: Each compound tested received a call. Report the one for C[C@@H]1CN([C@H](C)CO)C(=O)Cc2cc(NC(=O)Cc3cn(C)c4ccccc34)ccc2O[C@H]1CN(C)Cc1ccc(Cl)c(Cl)c1 .
Result: yes

Query: Test call for this compound, please: C[C@H]1CN([C@@H](C)CO)C(=O)c2cccc(NC(=O)C3CCOCC3)c2O[C@@H]1CN(C)C(=O)NC1CCCCC1
Result: no

Query: // param item: CCC(=O)Nc1ccc2c(c1)OC[C@H](C)N(C(=O)CN1CCOCC1)C[C@@H](C)[C@H](OC)CN(C)C2=O ; yields the recorded call
Result: no

Query: For this compound, state the assay outcome: C[C@H](CO)N1C[C@H](C)[C@@H](CN(C)Cc2ccc(Cl)c(Cl)c2)Oc2ccc(NC(=O)Cc3cn(C)c4ccccc34)cc2CC1=O
Result: no

Query: What outcome does the record of this test show for C[C@@H]1CN([C@@H](C)CO)S(=O)(=O)c2ccc(C#Cc3ccccc3F)cc2O[C@@H]1CN(C)C(=O)c1ccc2c(c1)OCO2 ?
Result: no
